# testedOn: RBL-1 Cell Cyclooxygenase (Rattus norvegicus)
# Construct: the supernatant was saved as the source of enzymes; endogenous in cells; host or cells: RBL-1 (rat basophilic leukemia cells), 10,000×g supernatant of homogenate
# Sequence (Q63921 27-602): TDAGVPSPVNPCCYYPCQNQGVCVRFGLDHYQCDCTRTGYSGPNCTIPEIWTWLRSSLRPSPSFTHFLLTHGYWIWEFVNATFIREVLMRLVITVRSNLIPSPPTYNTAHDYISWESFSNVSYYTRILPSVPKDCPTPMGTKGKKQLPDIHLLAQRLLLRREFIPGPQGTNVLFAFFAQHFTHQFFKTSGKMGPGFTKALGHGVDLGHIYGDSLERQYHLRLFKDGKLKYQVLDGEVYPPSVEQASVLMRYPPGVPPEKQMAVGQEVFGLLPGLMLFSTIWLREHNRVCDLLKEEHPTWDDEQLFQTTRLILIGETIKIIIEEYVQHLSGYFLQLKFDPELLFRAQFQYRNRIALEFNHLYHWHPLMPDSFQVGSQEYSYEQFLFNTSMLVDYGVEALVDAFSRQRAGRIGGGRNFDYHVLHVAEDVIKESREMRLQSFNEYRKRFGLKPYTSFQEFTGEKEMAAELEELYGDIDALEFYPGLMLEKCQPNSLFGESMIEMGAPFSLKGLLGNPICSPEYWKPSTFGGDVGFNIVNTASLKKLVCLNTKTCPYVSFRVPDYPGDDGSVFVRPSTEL
# protocolSummary: Procedure II: cyclooxygenase inhibition in disrupted RBL-1 cells (supernatant as enzyme source)
# Assay type: biochemical
Think of 60% as a floor: if % INHIBITION CO (Procedure II) stands on it or above, it is Condition met; beneath it, Condition not met.

givenSmiles	cat
COc1ccc(-n2nc(COC(=O)N(O)C(C)C)c(Br)c2-c2ccc(Cl)cc2)cc1	Condition not met
COc1ccc(-n2nc(COC(=O)NO)cc2-c2ccc(C)cc2)cc1	Condition met
COc1ccc(-n2nc(COC(=O)N(C)O)c(Cl)c2-c2ccc(C)cc2)cc1	Condition met
COc1ccc(-n2nc(CCOC(=O)N(O)C(C)C)cc2-c2ccc(C)cc2)cc1	Condition met
COc1ccc(-n2nc(COC(=O)N(C)O)cc2-c2ccc(C)cc2)cc1	Condition met
COc1ccc(-n2nc(COC(=O)N(C)O)c(Cl)c2-c2ccc(Cl)cc2)cc1	Condition not met
COc1ccc(-n2nc(CCOC(=O)N(C)O)cc2-c2ccc(Cl)cc2)cc1	Condition not met
COc1ccc(-n2nc(CCCOC(=O)NO)cc2-c2ccc(Cl)cc2)cc1	Condition met
COc1ccc(-n2nc(CCCOC(=O)N(C)O)cc2-c2ccc(Cl)cc2)cc1	Condition met
